Assay Protocol: Stability of cannabinoid and Vitamin E components of Beverage 2 (AB Red) stored at 8° C. and 21-25° C., LCMSMS over 570 days
Condition Parameters: 8° C., 1 days
Entries get a class label from measured Stability of Cannabinoids in AB Red. See ranges: low (below 0.5 µg/mL), intermediate (0.5 µg/mL to below 3 µg/mL), high (3 µg/mL or more)

[
  {
    "Compound": "CCCCCc1cc(O)c(C/C=C(\\C)CCC=C(C)C)c(O)c1",
    "Class Name": "high"
  },
  {
    "Compound": "C=C(C)[C@@H]1CCC(C)=C[C@H]1c1c(O)cc(CCCCC)c(C(=O)O)c1O",
    "Class Name": "intermediate"
  },
  {
    "Compound": "CCCCCc1cc2c(c(O)c1C(=O)O)[C@@H]1C=C(C)CC[C@H]1C(C)(C)O2 [D9 THCA, delta-9-tetrahydrocannabinolic acid]",
    "Class Name": "intermediate"
  },
  {
    "Compound": "CCCCCc1cc(O)c2c(c1)OC(C)(CCC=C(C)C)C=C2 (stereo not drawn)",
    "Class Name": "low"
  },
  {
    "Compound": "CCCCCc1cc(O)c2c(c1)OC(C)(C)c1ccc(C)cc1-2",
    "Class Name": "intermediate"
  },
  {
    "Compound": "CCCc1cc(O)c2c(c1)OC(C)(C)[C@@H]1CCC(C)=C[C@@H]21 [THCV, delta-9-tetrahydrocannabivarin]",
    "Class Name": "high"
  },
  {
    "Compound": "CCCCCc1cc(O)c2c(c1)OC(C)(C)[C@@H]1CCC(C)=C[C@@H]21 [D9 THC, delta-9-tetrahydrocannabinol, reference compound]",
    "Class Name": "high"
  },
  {
    "Compound": "C=C(C)[C@@H]1CCC(C)=C[C@H]1c1c(O)cc(CCC)cc1O",
    "Class Name": "low"
  }
]

----------
Format: physicochemical
Condition Parameters: stored at room temperature (21-25° C.), day 300
Measured Property: Stability in Powder Concentrate (content by LCMSMS) (mg/g powder)

[
  {
    "Compound": "Cc1c(C)c2c(c(C)c1OC(=O)CCC(=O)O)CC[C@@](C)(CCC[C@H](C)CCC[C@H](C)CCCC(C)C)O2 [α-Tocopheryl succinate]",
    "Test Value": 1.84
  },
  {
    "Compound": "CCCCCc1cc(O)c2c(c1)OC1(C)CCC3C1C2C3(C)C (stereo not shown)",
    "Test Value": 0.050
  },
  {
    "Compound": "C=C(C)[C@@H]1CCC(C)=C[C@H]1c1c(O)cc(CCCCC)c(C(=O)O)c1O",
    "Test Value": 0.409
  },
  {
    "Compound": "C=C(C)[C@@H]1CCC(C)=C[C@H]1c1c(O)cc(CCC)cc1O",
    "Test Value": 0.049
  },
  {
    "Compound": "CCCCCc1cc(O)c2c(c1)OC(C)(C)c1ccc(C)cc1-2",
    "Test Value": 0.469
  },
  {
    "Compound": "CCCCCc1cc(O)c(C/C=C(\\C)CCC=C(C)C)c(O)c1",
    "Test Value": 1.09
  },
  {
    "Compound": "CCCCCc1cc2c(c(O)c1C(=O)O)[C@@H]1C=C(C)CC[C@H]1C(C)(C)O2 [D9 THCA, delta-9-tetrahydrocannabinolic acid]",
    "Test Value": 0.156
  },
  {
    "Compound": "CCCCCc1cc(O)c2c(c1)OC(C)(CCC=C(C)C)C=C2 (stereo not shown)",
    "Test Value": 0.071
  },
  {
    "Compound": "CCCCCc1cc(O)c2c(c1)OC(C)(C)[C@@H]1CCC(C)=C[C@@H]21 [D9 THC, delta-9-tetrahydrocannabinol, reference compound]",
    "Test Value": 2.57
  },
  {
    "Compound": "C=C(C)[C@@H]1CCC(C)=C[C@H]1c1c(O)cc(CCCCC)cc1O [CBD, cannabidiol, reference compound]",
    "Test Value": 5.84
  },
  {
    "Compound": "Cc1c(C)c2c(c(C)c1O)CC[C@@](C)(CCC[C@H](C)CCC[C@H](C)CCCC(C)C)O2",
    "Test Value": 4.81
  },
  {
    "Compound": "CC(=O)Oc1c(C)c(C)c2c(c1C)CCC(C)(CCC[C@H](C)CCC[C@H](C)CCCC(C)C)O2 (stereo partly drawn) [α-Tocopheryl acetate]",
    "Test Value": 2.09
  },
  {
    "Compound": "CCCc1cc(O)c2c(c1)OC(C)(C)[C@@H]1CCC(C)=C[C@@H]21 [THCV, delta-9-tetrahydrocannabivarin]",
    "Test Value": 0.685
  }
]

// data source = patent US20240415914A1
